These measurements were taken from patent US20220370366A1.

Assay: Effect of acid-reducing agent (famotidine) on PK of Compound 1 single agent tablet, Cohort 11
Assay type: in vivo, human
Conditions: human, in vivo, oral; 100 mg (12% drug load), fasted, 2 hours after famotidine 40 mg, N=20; read-out: Compound 1 AUCinf (% CV) with Famotidine (Test)
Procedure: The objective of Cohort 11 was to assess the effect of gastric acid reducing agents (ARAs) on the PK of Compound 1 single agent tablet using famotidine, a representative H2RA. Compound 1 100 mg strength tablets (as free form equivalent) were used. Famotidine was obtained from a commercially available source. Treatment J: Single dose of Compound 1 (1×100 mg tablet) administered orally in the morning in the fasted state. […]
Readout Name: AUC(0-inf) (ng·h/mL)

O=C(O)c1ccnc(N2CC(O)(c3ccc(OCc4c(-c5c(Cl)cccc5Cl)noc4C4CC4)cc3Cl)C2)c1 [Compound 1, cilofexor] = 13600

---

test: Single dose PK (AUCinf) in Phase 1 studies, effect of drug load on Compound 1 exposure and variability; type: in vivo, human; conditions: human, in vivo, oral, 100 mg, 100 mg single dose, fasted, 20% drug load, healthy volunteers; read-out: Mean (% CV) Compound 1 AUCinf
Readout Name: AUC(0-inf) (ng·h/mL)

O=C(O)c1ccnc(N2CC(O)(c3ccc(OCc4c(-c5c(Cl)cccc5Cl)noc4C4CC4)cc3Cl)C2)c1 [Compound 1, cilofexor] = 7740

---

experiment: Single dose PK (AUCinf) in Phase 1 studies, effect of meal type on Compound 1 exposure and variability; assay type: in vivo, human; settings: human, in vivo, oral, 10 mg, 10 mg (5% drug load), moderate-fat meal, N=11; read-out: Compound 1 AUCinf (% CV) Fed
Readout Name: AUC(0-inf) (ng·h/mL)

O=C(O)c1ccnc(N2CC(O)(c3ccc(OCc4c(-c5c(Cl)cccc5Cl)noc4C4CC4)cc3Cl)C2)c1 [Compound 1, cilofexor] = 924

---

Test: Single dose PK (AUCinf) in Phase 1 studies, effect of drug load on Compound 1 exposure and variability
Assay type: in vivo, human
Details: human, in vivo, oral, 100 mg, 100 mg single dose, fasted, 8% drug load, healthy volunteers; read-out: Mean (% CV) Compound 1 AUCinf
Text: Part A: prespecified cohorts (Cohorts 1-3): Randomized, partially blind, placebo-controlled, single- and multiple-doses with staggered dose-escalations. 60 unique subjects; 15 per cohort (12 Compound 1, 3 placebo-to-match (“PTM”)) Part A (Single- and Multiple-Ascending Doses, Pre-Specified Cohorts) proceeded in 4 staggered, pre-specified, dose-escalation cohorts and were governed by study specific stopping criteria. […]
Readout Name: AUC(0-inf) (ng·h/mL)

O=C(O)c1ccnc(N2CC(O)(c3ccc(OCc4c(-c5c(Cl)cccc5Cl)noc4C4CC4)cc3Cl)C2)c1 [Compound 1, cilofexor] = 7480

---

experiment: Single dose PK (AUCinf) in Phase 1 studies, effect of drug load on Compound 1 exposure and variability; type: in vivo, human; conditions: human, in vivo, oral, 30 mg, 30 mg single dose, fasted, 20% drug load, healthy volunteers; read-out: Mean (% CV) Compound 1 AUCinf
Readout Name: AUC(0-inf) (ng·h/mL)

O=C(O)c1ccnc(N2CC(O)(c3ccc(OCc4c(-c5c(Cl)cccc5Cl)noc4C4CC4)cc3Cl)C2)c1 [Compound 1, cilofexor] = 1870

---

Assay: Single dose PK (AUCinf) in Phase 1 studies, effect of drug load on Compound 1 exposure and variability
Type: in vivo, human
Conditions: human, in vivo, oral, 100 mg, 100 mg single dose, fasted, 12% drug load, healthy volunteers; read-out: Mean (% CV) Compound 1 AUCinf
Excerpt: Part A: prespecified cohorts (Cohorts 1-3): Randomized, partially blind, placebo-controlled, single- and multiple-doses with staggered dose-escalations. 60 unique subjects; 15 per cohort (12 Compound 1, 3 placebo-to-match (“PTM”)) Part A (Single- and Multiple-Ascending Doses, Pre-Specified Cohorts) proceeded in 4 staggered, pre-specified, dose-escalation cohorts and were governed by study specific stopping criteria. […]
Readout Name: AUC(0-inf) (ng·h/mL)

O=C(O)c1ccnc(N2CC(O)(c3ccc(OCc4c(-c5c(Cl)cccc5Cl)noc4C4CC4)cc3Cl)C2)c1 [Compound 1, cilofexor] = 7650
